assay: Solubility of the compound; format: physicochemical
observation.type: solubility (µg/mL)

CC1(C)[C@H]2CC=C(CN3CCC(Nc4nc(-c5cc(C(F)(F)F)cc(C(F)(F)F)c5)ns4)CC3)[C@@H]1C2 2.7

###

Molecular target: C-X-C chemokine receptor type 3 (Homo sapiens)
Sequence (P49682 whole entry): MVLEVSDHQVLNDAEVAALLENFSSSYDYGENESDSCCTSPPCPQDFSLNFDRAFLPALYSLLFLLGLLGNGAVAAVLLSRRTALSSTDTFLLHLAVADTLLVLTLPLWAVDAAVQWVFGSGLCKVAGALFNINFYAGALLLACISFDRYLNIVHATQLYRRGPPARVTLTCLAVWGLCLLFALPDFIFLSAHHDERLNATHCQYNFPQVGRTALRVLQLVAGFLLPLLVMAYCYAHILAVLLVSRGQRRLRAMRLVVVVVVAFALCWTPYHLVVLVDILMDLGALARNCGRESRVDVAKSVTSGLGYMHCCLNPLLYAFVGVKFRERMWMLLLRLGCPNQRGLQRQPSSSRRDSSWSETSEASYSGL
Assay: Binding affinity to human CXCR3 receptor expressed in CHO membrane by ITAC-stimulated GTP gammaS assay
Some compounds, each annotated with its measured Ki.
observation.type: Ki (nM)

CN(c1nc2cc(Cl)ccc2s1)C1CCN(CC2=CC[C@H]3C[C@@H]2C3(C)C)CC1 290
CC1(C)[C@H]2CC=C(CN3CCC(N4CC(=O)N(c5cccc(C(F)(F)F)c5)C4=O)CC3)[C@@H]1C2 220
CC1(C)[C@H]2CC=C(CN3CCC(N4CCN(c5cc(C(F)(F)F)cc(C(F)(F)F)c5)C4=O)CC3)[C@@H]1C2 170
CC1(C)[C@H]2CC=C(CN3CCC(Nc4nc(-c5cc(C(F)(F)F)cc(C(F)(F)F)c5)ns4)CC3)[C@@H]1C2 270
CC1(C)[C@H]2CC=C(CN3CCC(N4CCN(c5cc(F)cc(C(F)(F)F)c5)C4=O)CC3)[C@@H]1C2 200
CC1(C)[C@H]2CC=C(CN3CCC(Nc4nc(-c5ccccc5)cs4)CC3)[C@@H]1C2 880
CC1(C)[C@H]2CC=C(CN3CCC(Nc4nc5ccccc5o4)CC3)[C@@H]1C2 680
CC1(C)[C@H]2CC=C(CN3CCC(N4CC(=O)N(c5ccc(Cl)c(C(F)(F)F)c5)C4=O)CC3)[C@@H]1C2 120
CN(c1nc2ccccc2[nH]1)C1CCN(CC2=CC[C@H]3C[C@@H]2C3(C)C)CC1 950
